# SYSTEM: human liver FBPase (hlFBPase) (Homo sapiens, UniProt P09467)
# Construct: made in house; host or cells: E. coli BL21 (transformed strain from Dr. M. R. El-Maghrabi, SUNY Stony Brook)
# Sequence (P09467 2-338 limits assumed): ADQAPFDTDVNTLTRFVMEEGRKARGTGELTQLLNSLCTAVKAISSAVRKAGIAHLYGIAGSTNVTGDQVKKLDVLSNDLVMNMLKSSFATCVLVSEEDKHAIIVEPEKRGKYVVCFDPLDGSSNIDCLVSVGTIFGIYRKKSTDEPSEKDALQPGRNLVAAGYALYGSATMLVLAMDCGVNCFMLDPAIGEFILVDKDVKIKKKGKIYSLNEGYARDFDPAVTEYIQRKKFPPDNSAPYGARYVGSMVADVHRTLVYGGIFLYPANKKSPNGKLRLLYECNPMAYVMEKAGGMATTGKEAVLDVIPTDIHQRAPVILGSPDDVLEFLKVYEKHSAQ
# PROCEDURE_DETAILS: Inhibition of Human Liver FBPase
# Format: biochemical
# EXPERIMENTAL_PARAMETERS: 0.150 mM fructose 1,6-bisphosphate, pH 7.4, 37° C.; read-out: HL FBPase IC50
pIC50: −log10 of the molar value.

{"columns": ["COMPOUND", "pIC50"],
 "data": [
  ["Nc1cccc2cc(C(=O)NCP(=O)(O)O)[nH]c12 [Compound 1.1]", 5.00],
  ["O=P(O)(O)c1ccc(-c2cn3cc(Cl)ccc3n2)o1 [Compound 14.2]", 5.35],
  ["O=P(O)(O)COCc1nc2ccccn2c1-c1ccccc1 [Compound 11.3]", 5.00],
  ["Cc1cccn2c(CC(C)C)c(-c3ccc(P(=O)(O)O)o3)nc12 [Compound 14.4]", 5.80],
  ["CC(C)Cn1c(-c2ccc(P(=O)(O)O)o2)cc2c(N)cccc21 [Compound 9.1]", 4.49]
]}
